Each record here notes measured inhibition at 20 µM.
Target: KRas G12C/Q61H double mutant (Homo sapiens (Human), UniProt P01116, G12C/Q61H)
Sequence (P01116-2 other isoform, or with tags, fused parts or gaps G12C/Q61H): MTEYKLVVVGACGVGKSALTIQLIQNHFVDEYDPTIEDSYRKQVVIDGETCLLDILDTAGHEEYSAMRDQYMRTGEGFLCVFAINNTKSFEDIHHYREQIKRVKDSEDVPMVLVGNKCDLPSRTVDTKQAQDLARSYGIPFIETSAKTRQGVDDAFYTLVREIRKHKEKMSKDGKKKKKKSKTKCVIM
Test: Ras GTP binding domain inhibition assay (labeled GTP)
Conditions: 20 μM compound; read-out: % Inhibition at 20 μM KRas G12C Q61H
Procedure: Buffer-I: • 50 mM Tris, pH 7.5 • 150 mM NaCl (optional) • 1 mM MgCl2 • 1 mM DTT. • KRas G12D mutant protein was expressed as a His-tagged protein. […] Then 22 μl of Cy3-GTP or Cy5-GTP was added to each well. The labeled GTP was incubated for 45 min. at room temperature. • Following GTP incubation, wells were washed 3× in Buffer-I, and 200 μl of Buffer-I were added to each well. • Following washes, the amount of bound labeled-GTP was measured with an Eppendorf AF2200 plate reader. […]
parameter.measured: inhibition at 20 µM

>  <molecule>
Oc1nc(-c2ccccn2)nc2c(-c3ccccc3)csc12 [drawing 2694]

>  <observed.measurement>
25 to 50%

$$$$
>  <molecule>
Oc1nc(-c2ccccn2)nc2sccc12 [drawing 2704]

>  <observed.measurement>
51 to 75%

$$$$
>  <molecule>
COCCCCNC(=O)c1csc2nc(-c3ccccn3)nc(N(CCOC)CCOC)c12 [drawing 2793]

>  <observed.measurement>
25 to 50%

$$$$
>  <molecule>
O=C(c1cc2nc(-c3ccccn3)nc(O)c2s1)N1CCOC(c2ccccc2)C1 (stereo not shown) [drawing 2842]

>  <observed.measurement>
51 to 75%

$$$$
>  <molecule>
COCCCCNC(=O)c1csc2nc(-c3ccccn3)nc(N3CCS(=O)(=O)CC3)c12 [drawing 2826]

>  <observed.measurement>
1 to 25%

$$$$
>  <molecule>
Cn1cc(C2CN(C(=O)c3csc4c(O)nc(-c5ccccn5)nc34)CCN2)cn1 (stereo not shown) [drawing 2777]

>  <observed.measurement>
51 to 75%

$$$$
>  <molecule>
Cc1ccccc1C1CN(C(=O)c2csc3c(O)nc(-c4ccccn4)nc23)CCN1 (stereo not shown) [drawing 2775]

>  <observed.measurement>
51 to 75%

$$$$
>  <molecule>
COc1ccc(C2CN(C(=O)c3csc4c(O)nc(-c5ccccn5)nc34)CCO2)cc1 (stereo not shown) [drawing 2768]

>  <observed.measurement>
25 to 50%

$$$$
>  <molecule>
COc1cc(OC)cc(N2CCN(C(=O)c3csc4c(O)nc(-c5ccccn5)nc34)CC2)c1 [drawing 2757]

>  <observed.measurement>
1 to 25%

$$$$
>  <molecule>
CC(C)COc1ccc(-c2csc3c(O)nc(-c4ccccn4)nc23)cn1 [drawing 2877]

>  <observed.measurement>
51 to 75%

$$$$
